test system: MDA-MB-231; test: Cell viability in breast cancer cell lines; format: cell-based; conditions: Homo sapiens; MDA-MB-231 (Mesenchymal-like), 72 hours; read-out: CTG and Alamar Blue Assay IC50
Quantity measured: pIC50
Entry type: numeric. Quantity: pIC50, the -log10 of concentration in molar units.

Recorded result, Nc1nccc(-c2c[nH]c3nccc(Oc4cccc(F)c4)c23)n1 [I-3] , pIC50: 6.25

* * *

biological target: CDK2/cyclin A (Homo sapiens); test: Radioisotope-based protein kinase assay; details: 10 μM ATP, 3-fold dilution from 10 μM
Exercise: state measured IC50 for each of the molecules provided.
Show the value, then the unit it is measured in.

With CDK2/cyclin A (Homo sapiens) as the test system, Nc1nccc(-c2c[nH]c3nccc(Oc4ccc(F)cc4)c23)n1 showed IC50 of 5 nM

With CDK2/cyclin A (Homo sapiens) as the test system, Nc1nccc(-c2c[nH]c3nccc(Oc4ccccc4)c23)n1 showed IC50 of 3 nM

With CDK2/cyclin A (Homo sapiens) as the test system, Nc1nccc(-c2c[nH]c3nccc(Oc4cccc(F)c4)c23)n1 showed IC50 of 4 nM

With CDK2/cyclin A (Homo sapiens) as the test system, Nc1nccc(-c2c[nH]c3nccc(Oc4cccc(Cl)c4)c23)n1 showed IC50 of 9 nM

* * *

Exercise: state measured pIC50 for each of the compounds provided.
biological target: CDK9/cyclin T1 (Homo sapiens); assay: Radioisotope-based protein kinase assay; assay type: biochemical; settings: 10 μM ATP, 3-fold dilution from 10 μM
Sequence (P50750 whole entry): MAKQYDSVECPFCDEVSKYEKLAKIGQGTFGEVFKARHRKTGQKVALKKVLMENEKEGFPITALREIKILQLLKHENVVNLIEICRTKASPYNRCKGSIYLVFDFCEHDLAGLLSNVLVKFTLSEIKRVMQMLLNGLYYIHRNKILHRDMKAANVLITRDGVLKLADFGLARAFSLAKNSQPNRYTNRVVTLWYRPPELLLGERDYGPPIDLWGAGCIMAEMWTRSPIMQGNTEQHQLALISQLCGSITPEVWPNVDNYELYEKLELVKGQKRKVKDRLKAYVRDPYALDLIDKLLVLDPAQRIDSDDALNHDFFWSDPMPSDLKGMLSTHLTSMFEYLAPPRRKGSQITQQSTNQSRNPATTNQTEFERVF
Sequence (O60563 whole entry partner): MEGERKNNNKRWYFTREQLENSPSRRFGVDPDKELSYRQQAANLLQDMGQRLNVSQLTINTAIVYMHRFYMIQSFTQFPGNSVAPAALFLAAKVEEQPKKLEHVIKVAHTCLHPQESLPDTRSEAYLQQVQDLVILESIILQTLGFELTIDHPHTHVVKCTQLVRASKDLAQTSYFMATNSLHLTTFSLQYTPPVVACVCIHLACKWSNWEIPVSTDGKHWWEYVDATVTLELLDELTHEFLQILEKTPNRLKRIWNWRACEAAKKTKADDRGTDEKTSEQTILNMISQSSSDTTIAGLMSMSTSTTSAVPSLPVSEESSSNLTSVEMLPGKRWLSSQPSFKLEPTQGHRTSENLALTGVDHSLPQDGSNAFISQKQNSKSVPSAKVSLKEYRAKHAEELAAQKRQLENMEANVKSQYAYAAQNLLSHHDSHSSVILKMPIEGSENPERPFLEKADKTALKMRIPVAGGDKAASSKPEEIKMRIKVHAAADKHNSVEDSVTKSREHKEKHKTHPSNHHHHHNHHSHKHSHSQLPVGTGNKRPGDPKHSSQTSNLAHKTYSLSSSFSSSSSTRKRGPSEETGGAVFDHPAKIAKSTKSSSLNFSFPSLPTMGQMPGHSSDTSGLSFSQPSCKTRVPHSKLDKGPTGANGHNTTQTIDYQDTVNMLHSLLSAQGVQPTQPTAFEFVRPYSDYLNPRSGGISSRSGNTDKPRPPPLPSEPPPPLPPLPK
Entry type: numeric. Quantity: pIC50, the -log10 of concentration in molar units.

Recorded result, Nc1nccc(-c2c[nH]c3nccc(Oc4cccc(C(F)(F)F)c4)c23)n1 , pIC50: 7.80

Recorded result, Nc1nccc(-c2c[nH]c3nccc(Oc4ccc(F)cc4)c23)n1 , pIC50: 8.52

Recorded result, Nc1nccc(-c2c[nH]c3nccc(Oc4cccc(F)c4)c23)n1 , pIC50: 8.15

* * *

Exercise: state measured IC50 for each of the compounds provided.
biological target: CDK2/cyclin E (Homo sapiens); assay: Radioisotope-based protein kinase assay; details: 10 μM ATP, 3-fold dilution from 10 μM
Report only the number, with the unit nM understood.

Recorded result, CC[C@H](Nc1nc(NCc2cnc(C)cc2C)c2ncn(C(C)C)c2n1)[C@@H](C)O [CYC065, reference compound] , IC50: 5

Recorded result, CNC(=O)c1nn(C)c2c1C(C)(C)Cc1cnc(Nc3ccc(N4CCN(C)CC4)cc3)nc1-2 , IC50: 363

Recorded result, Nc1nccc(-c2c[nH]c3nccc(Oc4ccccc4)c23)n1 , IC50: 2

Recorded result, Nc1nccc(-c2c[nH]c3nccc(Oc4cc(F)cc(F)c4)c23)n1 , IC50: 2

Recorded result, Nc1nccc(-c2c[nH]c3nccc(Oc4cccc(F)c4)c23)n1 , IC50: 4

Recorded result, Nc1nccc(-c2c[nH]c3nccc(Oc4cccc(C(F)(F)F)c4)c23)n1 , IC50: 27

Recorded result, Nc1nccc(-c2c[nH]c3nccc(Oc4cccc(Cl)c4)c23)n1 , IC50: 8

* * *

assay: Absolute bioavailability / PK after IV and PO dosing in CD-1 male mice; format: in vivo; conditions: male, CD-1, mouse, plasma, po, 10 mg/kg, male CD1 mice, PO 10 mg/kg
Quantity measured: AUC(0-t)

Recorded result, Nc1nccc(-c2c[nH]c3nccc(Oc4cccc(F)c4)c23)n1 [I-3] , AUC(0-t): 5670 ng·h/mL

* * *

Exercise: state measured Tmax for each of the compounds provided.
experiment: Snapshot plasma pharmacokinetics in mice; assay type: in vivo; details: mouse, in vivo
Report only the number, with the unit h understood.

Recorded result, CCN1CCN(Cc2ccc(Nc3ncc(F)c(-c4cc(F)c5nc(C)n(C(C)C)c5c4)n3)nc2)CC1 , Tmax: 5.5

Recorded result, CNC(=O)c1nn(C)c2c1C(C)(C)Cc1cnc(Nc3ccc(N4CCN(C)CC4)cc3)nc1-2 , Tmax: 3.5

Recorded result, CN(C)C(=O)c1cc2cnc(Nc3ccc(N4CCNCC4)cn3)nc2n1C1CCCC1 , Tmax: 5.7

Recorded result, Nc1nccc(-c2c[nH]c3nccc(Oc4cccc(F)c4)c23)n1 , Tmax: 3.1

* * *

assay: Snapshot plasma pharmacokinetics in mice; type: in vivo; details: mouse, plasma, oral, 5 mg/kg, in vivo PK comparison of CDK inhibitors, Table 13; read-out: Tmax
Quantity measured: Tmax (h)
Report only the number, with the unit h understood.

Recorded result, CC(=O)c1c(C)c2cnc(Nc3ccc(N4CCNCC4)cn3)nc2n(C2CCCC2)c1=O [Palbociclib] , Tmax: 2.1

* * *

molecular target: CDK1/Cyclin B1 (Homo sapiens); test: NanoBRET target engagement intracellular kinase assay in HEK293 cells; settings: transfected HEK293 cells; 10-dose, 3-fold from 10 μM, duplicate
Sequence (P06493 whole entry): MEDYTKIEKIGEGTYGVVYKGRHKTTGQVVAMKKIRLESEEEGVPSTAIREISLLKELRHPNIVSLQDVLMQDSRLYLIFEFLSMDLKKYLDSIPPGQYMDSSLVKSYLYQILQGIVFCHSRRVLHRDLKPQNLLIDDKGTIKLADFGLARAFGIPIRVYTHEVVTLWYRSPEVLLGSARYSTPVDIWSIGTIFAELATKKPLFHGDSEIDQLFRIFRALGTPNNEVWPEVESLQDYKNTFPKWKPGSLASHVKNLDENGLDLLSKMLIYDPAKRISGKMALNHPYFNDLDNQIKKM
Sequence (P14635 whole entry partner): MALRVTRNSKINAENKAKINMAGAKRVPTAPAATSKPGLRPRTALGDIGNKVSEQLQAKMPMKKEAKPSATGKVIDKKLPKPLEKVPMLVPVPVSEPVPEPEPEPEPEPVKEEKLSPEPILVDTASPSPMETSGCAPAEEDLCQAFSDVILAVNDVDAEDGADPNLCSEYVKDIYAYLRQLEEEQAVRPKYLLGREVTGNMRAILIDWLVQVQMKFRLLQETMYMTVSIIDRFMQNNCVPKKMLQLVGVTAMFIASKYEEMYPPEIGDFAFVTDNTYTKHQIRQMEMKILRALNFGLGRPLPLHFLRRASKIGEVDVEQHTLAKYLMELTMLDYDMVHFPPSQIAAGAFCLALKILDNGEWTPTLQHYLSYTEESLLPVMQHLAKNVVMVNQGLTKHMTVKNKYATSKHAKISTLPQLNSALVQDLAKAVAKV
Quantity measured: IC50 (µM)
Report only the number, with the unit µM understood.

Recorded result, Nc1nccc(-c2c[nH]c3nccc(Oc4cccc(F)c4)c23)n1 , IC50: 1.07

* * *

assay: Snapshot plasma pharmacokinetics in mice; format: in vivo; details: mouse, plasma, oral, 5 mg/kg, in vivo PK comparison of CDK inhibitors, Table 13; read-out: AUCinf
Quantity measured: AUC(0-inf) (ng·h/mL)
Report only the number, with the unit ng·h/mL understood.

Recorded result, CC(=O)c1c(C)c2cnc(Nc3ccc(N4CCNCC4)cn3)nc2n(C2CCCC2)c1=O , AUC(0-inf): 641

* * *

Exercise: state measured AUC(0-inf) for each of the molecules provided.
assay: Snapshot plasma pharmacokinetics in mice; assay type: in vivo; conditions: mouse, in vivo, AUCinf
Report only the number, with the unit ng·h/mL understood.

Recorded result, CNC(=O)c1nn(C)c2c1C(C)(C)Cc1cnc(Nc3ccc(N4CCN(C)CC4)cc3)nc1-2 , AUC(0-inf): 2980

Recorded result, Nc1nccc(-c2c[nH]c3nccc(Oc4cccc(F)c4)c23)n1 , AUC(0-inf): 1870

Recorded result, CCN1CCN(Cc2ccc(Nc3ncc(F)c(-c4cc(F)c5nc(C)n(C(C)C)c5c4)n3)nc2)CC1 , AUC(0-inf): 613

Recorded result, CN(C)C(=O)c1cc2cnc(Nc3ccc(N4CCNCC4)cn3)nc2n1C1CCCC1 , AUC(0-inf): 2780

* * *

molecular target: CDK4/cyclin D1 (Homo sapiens, UniProt P11802); assay: Radioisotope-based protein kinase assay; assay type: biochemical; conditions: 10 μM ATP, 3-fold dilution from 10 μM
Sequence (P11802 whole entry): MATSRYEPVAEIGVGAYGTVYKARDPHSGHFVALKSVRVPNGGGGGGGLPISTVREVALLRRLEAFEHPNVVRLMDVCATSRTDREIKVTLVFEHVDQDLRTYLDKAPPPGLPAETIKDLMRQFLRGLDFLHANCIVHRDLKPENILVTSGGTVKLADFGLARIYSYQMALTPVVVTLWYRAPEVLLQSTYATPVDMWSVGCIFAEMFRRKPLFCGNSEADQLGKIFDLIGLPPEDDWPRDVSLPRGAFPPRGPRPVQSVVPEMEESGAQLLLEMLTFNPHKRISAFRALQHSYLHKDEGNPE
Sequence (P24385 whole entry partner): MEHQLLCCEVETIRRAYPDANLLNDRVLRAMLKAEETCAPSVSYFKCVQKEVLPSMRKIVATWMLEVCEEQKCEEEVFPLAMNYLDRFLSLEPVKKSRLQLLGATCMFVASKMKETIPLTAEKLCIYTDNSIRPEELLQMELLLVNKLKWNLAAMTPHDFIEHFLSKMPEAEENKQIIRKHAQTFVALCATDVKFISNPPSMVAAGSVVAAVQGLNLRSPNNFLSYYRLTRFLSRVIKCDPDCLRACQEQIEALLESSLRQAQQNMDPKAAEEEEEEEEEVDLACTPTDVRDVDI
Exercise: state measured pIC50 for each of the compounds provided.
Entry type: numeric. Quantity: pIC50, the -log10 of concentration in molar units.

Recorded result, Nc1nccc(-c2c[nH]c3nccc(Oc4cc(F)cc(F)c4)c23)n1 , pIC50: 6.34

Recorded result, CC[C@H](Nc1nc(NCc2cnc(C)cc2C)c2ncn(C(C)C)c2n1)[C@@H](C)O [CYC065, reference compound] , pIC50: 7.68

Recorded result, Nc1nccc(-c2c[nH]c3nccc(Oc4cccc(Cl)c4)c23)n1 , pIC50: 6.06

Recorded result, Nc1nccc(-c2c[nH]c3nccc(Oc4cccc(F)c4)c23)n1 , pIC50: 6.38

Recorded result, Nc1nccc(-c2c[nH]c3nccc(Oc4ccccc4)c23)n1 , pIC50: 6.59

Where do these numbers come from? They come from patent US20240261297A1.
